Assignment: determine reported IC50 for the given compounds.
- subject of test: Human IDO1 (Homo sapiens)
- Sequence (P14902 whole entry): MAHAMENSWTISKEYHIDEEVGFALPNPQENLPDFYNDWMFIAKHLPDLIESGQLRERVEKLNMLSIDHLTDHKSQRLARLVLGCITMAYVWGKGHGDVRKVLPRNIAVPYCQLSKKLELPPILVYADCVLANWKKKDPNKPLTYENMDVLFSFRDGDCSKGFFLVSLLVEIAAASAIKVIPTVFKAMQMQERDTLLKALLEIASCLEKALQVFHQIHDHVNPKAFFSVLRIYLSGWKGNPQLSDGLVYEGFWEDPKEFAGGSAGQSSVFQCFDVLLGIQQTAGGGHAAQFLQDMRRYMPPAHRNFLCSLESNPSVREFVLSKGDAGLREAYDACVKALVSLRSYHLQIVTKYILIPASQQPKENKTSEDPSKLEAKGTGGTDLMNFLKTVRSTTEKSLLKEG
- protocol: IDO Kynurenine Assay with Human IDO1/HEK293 Cells
- particulars: 20 hours incubation, kynurenine absorbance at 490 nm, read-out: HEK human IDO-1 (IC50)
Answers are plain numbers, in nM.

# annotated cases, reported IC50 shown
May I ask what IC50 has been recorded for N#Cc1ccc(CC(=O)Nc2cc(-c3ccccc3-c3nnn[nH]3)ccc2N(CCCC(F)(F)F)C2CCCCC2)cc1 ?
270

Could you share which IC50 value was measured for Cc1ccc(CC(=O)Nc2cc(-c3ccccc3-c3nnn[nH]3)cc(F)c2N(CC(C)C)C2CCCCC2)cc1 ?
10

IC50 for Cc1cc(CC(=O)Nc2cc(-c3cc(F)ccc3C(=O)O)ccc2N(CC(C)C)C2CCCCC2)on1 ?
300

Read the next record carefully.
Which IC50 value is on record for N#Cc1ccc(CC(=O)Nc2cc(-c3cc(F)ccc3C(=O)O)ccc2N(CCCC(F)(F)F)C2CCCCC2)cc1 ?
1860
